Hello, the source for this data is PubChem BioAssay (NCI), in case you need it.

System: MOLT-4 leukemia
assay overview: NCI-60 one-dose screen, 48 h (100 = growth as untreated, 0 = no growth, -100 = all killed)
cond: 10 µM unless noted
About 83,000 compounds went through this panel and 20% of them were active in at least one assay; those are over-represented in the sample as a whole.
Decide by growth: equal to or exceeding 90% means Condition met, less means Condition not met.

{"molecule": "COc1cc(/C=C2\\C(=O)ON=C2C)cc(OC)c1OC", "assayed system": "MOLT-4 leukemia", "class name": "Condition met"}
{"molecule": "COc1cc(C2CC(=O)Nc3c2c(C)nn3-c2nc3ccccc3[nH]2)c(OC)c2c1OCO2 (stereo not given)", "assayed system": "MOLT-4 leukemia", "class name": "Condition not met"}
{"molecule": "COc1ccc(Cl)cc1NC(=O)C(Br)C(Br)C(=O)O (stereo not given)", "assayed system": "MOLT-4 leukemia", "class name": "Condition not met"}
{"molecule": "CCOC(=O)c1c2ncccc2n2c(=O)n(-c3ccccc3C)nnc12", "assayed system": "MOLT-4 leukemia", "class name": "Condition not met"}
{"molecule": "COC1=C(OC)C(=O)C(OC)=C(OC)C1=O", "assayed system": "MOLT-4 leukemia", "class name": "Condition not met"}
{"molecule": "O=C1Nc2ccccc2/C1=C/c1cn(C(=O)c2ccc(Cl)cc2)c2ccccc12", "assayed system": "MOLT-4 leukemia", "class name": "Condition met"}
{"molecule": "COc1cc(/C=C/C(=O)c2cccc(-n3cc(-c4ccccc4)[nH]c3=O)c2)ccc1O", "assayed system": "MOLT-4 leukemia", "class name": "Condition not met"}
{"molecule": "COC(=O)c1c2c(c(C)[n+]([O-])c1C)C(=O)C(NCc1ccc(F)cc1)=CC2=O", "assayed system": "MOLT-4 leukemia", "class name": "Condition not met"}
{"molecule": "CC1CC2Oc3ccc(Cl)cc3C(=O)N2O1 (stereo not given)", "assayed system": "MOLT-4 leukemia", "class name": "Condition met"}
{"molecule": "N=C1CCC(=N)c2c1c(O)c1ccccc1c2O", "assayed system": "MOLT-4 leukemia", "class name": "Condition not met"}
{"molecule": "Cc1c(C(=O)N[C@@H](Cc2ccccc2)C(=O)C(=O)NCCc2ccccc2)[nH]c2ccccc2c1=O", "assayed system": "MOLT-4 leukemia", "class name": "Condition not met"}
{"molecule": "Cc1ccc(Nc2ccc(Nc3ccc(C)cc3)c3c2C(=O)c2cccc(O)c2C3=O)cc1", "assayed system": "MOLT-4 leukemia", "class name": "Condition met"}
{"molecule": "CC1(c2ccccc2)NC(=O)N(NC(=O)CSc2nc(-c3cccs3)nc3ccccc23)C1=O (stereo not given)", "assayed system": "MOLT-4 leukemia", "class name": "Condition not met"}
{"molecule": "O=c1c2c3c(sc2nc(N/N=C/c2ccc(Br)cc2)n1Cc1ccccc1)CCCC3", "assayed system": "MOLT-4 leukemia", "class name": "Condition not met"}

====

System: CAKI-1 renal
assay overview: NCI-60 one-dose screen, 48 h
cond: 10 µM unless noted
About 83,000 compounds went through this panel and 20% of them were active in at least one assay; those are over-represented in the sample as a whole. Activity calls are given as the source filed them. The calls were made as follows: active = growth percent below 10; inactive = the rest.
Classes used: active, inactive

{"compound": "COC(=O)c1c2c(c(C)[n+]([O-])c1C)C(=O)C(NCc1ccc(F)c(Cl)c1)=CC2=O", "class name": "inactive"}
{"compound": "O=C(Cc1ccc(F)c(F)c1)Nc1cc(C2(C(F)(F)F)CC2)nn1Cc1ccccc1", "class name": "active"}
{"compound": "C=C(C)[C@@H]1CC[C@]2(C)[C@H](CC=C3[C@@H]4CC(C)(C)CC[C@]4(C(N)=O)CC[C@]32C)[C@@]1(C)CCC#N", "class name": "inactive"}
{"compound": "Cc1cc(NCCCCNc2ccnc3cc(Cl)ccc23)nc(Nc2ccc(C(=O)N3CCCCC3)cc2)n1", "class name": "inactive"}
{"compound": "N#CC1=C(/N=C/c2ccccc2)Oc2c(ccc3ccccc23)C1c1ccccc1 (configuration not stated)", "class name": "inactive"}
{"compound": "O=C(CSc1nnc(-c2ccc(NC(=O)c3cccnc3)cc2)o1)Nc1cccc(Br)c1", "class name": "inactive"}
{"compound": "CNC(=O)CCN1CCN(CC/C=C2\\c3ccccc3Sc3ccc(Cl)cc32)CC1", "class name": "inactive"}
{"compound": "COc1ccc2oc3c(C)c4c(c(C)c3c2c1)C(=O)N(Cc1ccccc1)C4=O", "class name": "inactive"}
{"compound": "c1coc(-c2c3ccc(=[N+]4CCCCC4)cc-3oc3cc(N4CCCCC4)ccc23)c1", "class name": "active"}
{"compound": "c1cc2ccc3cc2cc1CNCCOCCNCc1ccc2ccc(cc2c1)CNCCOCCNC3", "class name": "inactive"}
{"compound": "Cc1ccc2nc3ccccc3c(NCc3ccccc3)c2c1", "class name": "inactive"}
{"compound": "S=C(c1ccc2c(c1)OCO2)N1CCN(c2ccccc2Cl)CC1", "class name": "inactive"}
{"compound": "NC(=O)c1ccc[n+](Cc2ccc(Cl)cc2Cl)c1", "class name": "inactive"}
{"compound": "CCN1C(=O)N(CC)C2Nn3c(s/c(=C\\c4ccc(Cl)cc4Cl)c3=O)=NC21 (configuration not stated)", "class name": "inactive"}
{"compound": "CC(C)Sc1nc(NNC(N)=S)c(C#N)c(-c2ccc(F)cc2)n1", "class name": "inactive"}
{"compound": "Cc1ccc2nc(NC(=O)CSc3nc(Nc4ccc([N+](=O)[O-])cc4)c(C#N)c(-c4ccccc4)n3)sc2c1", "class name": "inactive"}
{"compound": "O=C(/C=C/c1ccc(Cl)nc1)c1ccc(Cl)cc1Cl", "class name": "inactive"}
{"compound": "CCn1c(C)nc2cc(C(N)=O)ccc21", "class name": "inactive"}
{"compound": "COc1ccc(NC(=O)CSc2nc(C)c(C(C)=O)n2-c2ccc([N+](=O)[O-])cc2)cc1", "class name": "inactive"}
{"compound": "CC(=O)N1N=C(c2ccc(Nc3nc(Nc4ccc(F)cc4)nc(Nc4ccc(F)cc4)n3)cc2)CC1c1cccc([N+](=O)[O-])c1 (configuration not stated)", "class name": "inactive"}
{"compound": "COc1ccc2c(c1)O/C(=C\\c1cccc(OCC(=O)Nc3nc(C)c(C)s3)c1)C2=O", "class name": "active"}
{"compound": "C[C@H](NC(=O)[C@@H]1CSSC[C@@H](NC(=O)c2nc3ccccc3cc2O)C(=O)NCC(=O)N1C)c1ccccc1", "class name": "inactive"}
{"compound": "CNC(=O)c1cc(Oc2ccc3nc(Nc4ccc(Cl)c(C(F)(F)F)c4)ccc3c2)ccn1", "class name": "inactive"}
{"compound": "O=C(/C=C/c1cccc(O)c1)c1cccc(-n2cc(-c3ccc4ccccc4c3)[nH]c2=O)c1", "class name": "active"}
{"compound": "O=c1c2c3c(sc2n2c(-c4cn(-c5ccccc5)nc4-c4ccc(Cl)cc4)nnc2n1Cc1ccccc1)CCCC3", "class name": "inactive"}
{"compound": "COc1cc(C(=O)/C=C/c2c(-c3ccc(F)cc3)nc3sc(C)cn23)cc(OC)c1OC", "class name": "inactive"}
{"compound": "OC(c1cccc(-n2ccc(C(F)(F)F)n2)c1)c1cnccc1NC1CCCCCC1 (configuration not stated)", "class name": "inactive"}
{"compound": "O=c1cc(C2NNC(=S)N2)c2ccc3ccccc3c2o1 (configuration not stated)", "class name": "inactive"}
{"compound": "COC(=O)[C@]12CC[C@@H](C)[C@H](C)[C@@H]1C1=CC[C@@H]3[C@@]4(C)C(C=O)=C[C@@](C)(COC(=O)/C=C/c5ccccc5)[C@@H]4[C@H](O)C[C@@]3(C)[C@]1(C)CC2", "class name": "inactive"}
{"compound": "CN1CCN(C(=O)c2c3c(n4ccccc24)C(=O)c2ncccc2C3=O)CC1", "class name": "inactive"}
{"compound": "c1csc(-c2c3ccc(=[N+]4CCCCC4)cc-3oc3cc(N4CCCCC4)ccc23)c1", "class name": "active"}
{"compound": "CCCc1cc2c(=O)c(C(=O)OC)c[nH]c2cc1N(CC)CC", "class name": "inactive"}
{"compound": "COc1ccc2c(c1)C(=O)/C(=C/c1cccc(OCC(=O)Nc3nc(C)c(C)s3)c1)O2", "class name": "active"}
{"compound": "Cc1c(O)cc(-c2cnc(N/N=C\\c3ccc(Cl)cc3)s2)c(O)c1C", "class name": "inactive"}
{"compound": "O=C(CCCCCCSc1nc(-c2ccccc2)cc(-c2ccc(Cl)cc2)n1)NO", "class name": "active"}
{"compound": "COc1cc(-c2nn(-c3ccccc3)cc2-c2ccnc(NCCNS(=O)(=O)c3ccc(Cl)cc3)n2)ccc1Cl", "class name": "inactive"}
{"compound": "COc1cccc(C(=O)NCCNc2cc(-c3cn(-c4ccccc4)nc3-c3cccc(OC)c3)ccn2)c1", "class name": "inactive"}
